- Read-out: Transforming growth factor beta 1 (TGFb1), TGFB1 (gene 7040)
- assay.details: BSK_KF3CT_TGFb1: BioMAP Diversity Plus: KF3CT Assay for Transforming growth factor beta 1 (TGFb1) Biomarker Activity (AID 2283072)
- condition.details: primary human keratinocytes with fibroblasts; actives raise or lower the signal
Activity calls are given as the source filed them. How the source made its calls: active means hit-call score of the fitted dose curve at least 0.9, where 1 is the maximum; inactive means score below 0.9.
Pick one and only one: label 1 for active, label 0 for inactive

>>> label_value("Nc1nc(N)c2nc(CNc3ccc(C(=O)N[C@@H](CCC(=O)O)C(=O)O)cc3)cnc2n1")
"label 0"

Exam item: Could you kindly confirm the outcome this assay logged for `Clc1cc(Cl)c(Cl)cc1Cl` ?
Marked response: label 0

Exam item: Tell me the assay call for `CCc1c(C(=O)NN2CCCCC2)nn(-c2ccc(Cl)cc2Cl)c1-c1ccc(Br)cc1` please.
Marked response: label 1

Exam item: Called result for `CCCCCCCCCCCCCCCCCC(=O)O`
Marked response: label 0

Exam item: How did this test come out for `O=C(O)CCCCC(=O)O` ?
Marked response: label 0
